Reference source: ChEMBL document CHEMBL5620406

Species: Homo sapiens
Assay: Inhibition of mitochondrial complex I (unknown origin) at 1 uM incubated for 15 mins by microplate reader analysis relative to control
readout-label: inhibition (%)
Quick note: give the figure in %, leave out the unit.

// worked examples, inhibition included
INSERT INTO assay_data (item_smiles, observed_result) VALUES
  ('Cc1cc(C(=O)Nc2ccc(OC(F)(F)F)cc2)nn1Cc1cccc(N2CCS(=O)(=O)CC2)c1', 6.09),
  ('Cc1cc(C(=O)Nc2ccccc2)nn1Cc1cccc(N2CCN(C(=O)C3CC3)CC2)c1', 7.12),
  ('Cc1cc(C)cc(-c2cccc(Cn3nc(C(=O)Nc4ccc(OC(F)(F)F)cc4)cc3C)c2)c1', 3.73),
  ('Cc1cc(C(=O)Nc2ccccc2OC(F)(F)F)nn1Cc1cccc(N2CCN(C(=O)C3CC3)CC2)c1', 1.87),
  ('Cc1cn(Cc2cccc(N3CCC(S(C)(=O)=O)CC3)c2)nc1C(=O)Nc1ccc(OC(F)(F)F)cc1', 9.43);

Which value of inhibition has been reported for C=C(C)[C@H]1Cc2c(ccc3c2O[C@@H]2COc4cc(OC)c(OC)cc4[C@@H]2C3=O)O1 in the records?
71.8

Which value of inhibition has been reported for Cc1cc(C(=O)Nc2ccc(OC(F)(F)F)cc2)nn1Cc1cccc(Br)c1 in the records?
1.54

Which value of inhibition has been reported for Cc1cc(C(=O)Nc2ccc(Cl)c(F)c2)nn1Cc1cccc(N2CCN(C(=O)C3CC3)CC2)c1 in the records?
11.1

Which value of inhibition has been reported for Cc1ccc(NC(=O)c2cc(C)n(Cc3cccc(N4CCN(C(=O)C5CC5)CC4)c3)n2)cc1F in the records?
3.49

Which value of inhibition has been reported for Cc1cc(C(=O)Nc2ccccc2F)nn1Cc1cccc(N2CCN(C(=O)C3CC3)CC2)c1 in the records?
1.72

Which value of inhibition has been reported for Cc1ccc(NC(=O)c2cc(C)n(Cc3cccc(N4CCN(C(=O)C5CC5)CC4)c3)n2)cc1 in the records?
7.73

Which value of inhibition has been reported for CS(=O)(=O)C1CCN(c2cccc(Cn3nc(C(=O)Nc4ccc(OC(F)(F)F)cc4)c4c5nn(c6c5COCC6)c43)c2)CC1 in the records?
13.2

Which value of inhibition has been reported for COc1ccccc1-c1cccc(Cn2nc(C(=O)Nc3ccc(OC(F)(F)F)cc3)cc2C)c1 in the records?
3.57

---

Species on record: Homo sapiens
Experiment: Inhibition of mitochondrial complex I (unknown origin) at 1 uM incubated for 15 mins by microplate reader analysis relative to control
Classify as follows. Reported inhibition greater than or equal to 30%: true. Reported inhibition below: false.

Example entries and their recorded answers appear below.
INSERT INTO measurements (item_smiles, discrete_label) VALUES
  ('Cc1cc(C(=O)Nc2ccc(OC(F)(F)F)cc2)nn1Cc1cccc(N2CCC(S(C)(=O)=O)CC2)c1', 'true'),
  ('Cc1nc(-c2nc(-c3ccc(OC(F)(F)F)cc3)no2)nn1Cc1cccc(N2CCC(S(C)(=O)=O)CC2)c1', 'true'),
  ('Cc1cc(C(=O)Nc2ccc(OC(F)(F)F)cc2)nn1Cc1cccc(-c2ccc(S(C)(=O)=O)cc2)c1', 'true'),
  ('COc1ccc(NC(=O)c2cc(C)n(Cc3cccc(N4CCN(C(=O)C5CC5)CC4)c3)n2)cc1', 'false'),
  ('Cc1cc(C(=O)Nc2ccc(OC(F)(F)F)cc2)nn1Cc1cccc(N2CCN(C(=O)C3CC3)CC2)c1', 'true');

Evaluate Cc1cc(C(=O)Nc2ccc(OC(F)(F)F)cc2)nn1Cc1ccc2ccccc2c1 : inhibition at minimum 30%?
false

Evaluate CS(=O)(=O)C1CCN(c2cccc(Cn3nc(C(=O)Nc4ccc(OC(F)(F)F)cc4)cc3-c3ccccc3)c2)CC1 : inhibition at minimum 30%?
true

Evaluate COc1ccc(NC(=O)c2cc(C)n(Cc3cccc(N4CCN(C(=O)C5CC5)CC4)c3)n2)cc1OC : inhibition at minimum 30%?
false

Evaluate CS(=O)(=O)C1CCN(c2cccc(Cn3nc(C(=O)Nc4ccc(OC(F)(F)F)cc4)c4c5nn(c6ccccc56)c43)c2)CC1 : inhibition at minimum 30%?
false
